System: T-47D breast
Assay: NCI-60 one-dose screen, 48 h (100 = growth as untreated, 0 = no growth, -100 = all killed)
Conditions: 10 µM unless noted
This is part of a sample that, as a whole, favours compounds with a hit. Of some 83,000 tested, about 20% had one in any assay.
MEASUREMENT_LABEL: growth (%)
State just the number; it will be interpreted in %.

CCOC(=O)c1ccc2c(c1)[n+](=O)c(C(C)=O)c(C(F)(F)F)n2[O-]    -26.1
O=c1c(/C=C/c2c(O)ccc3ccccc23)nnc2sc(-c3cccc([N+](=O)[O-])c3)nn12    33.6
O=C(/C=C/c1cccc([N+](=O)[O-])c1)c1ccc(Nc2nc(Nc3ccc(F)cc3)nc(Nc3ccc(Cl)cc3)n2)cc1    81.4

-- ask Data request, read-out growth, for CC(C)(C)n1cc(-c2ccnc(NCCNS(=O)(=O)c3ccc(C(F)(F)F)cc3)c2)c(-c2ccccc2)n1
-- reply 62.5

* * *

System: HOP-92 NSCLC
Assay: NCI-60 one-dose screen, 48 h (100 = growth as untreated, 0 = no growth, -100 = all killed)
Settings: 10 µM unless noted
The panel holds about 83,000 compounds, 20% with a hit somewhere; the sample as a whole holds those more often.
Quick rule for you: growth at 60% or higher means TRUE, lower means FALSE.

O=C1/C(=C/c2ccc(Br)cc2)COc2ccc(O)cc21    TRUE
CCCC1Cc2cc(-n3nc(C)c4c3CC(C)(C)CC4=O)cc(NC3CCC(O)CC3)c2C(=O)N1 (stereo not given)    FALSE
Cn1ccnc1C(=O)/C=C/c1ccc(CC(=O)Nc2cc(F)c(F)c(F)c2)cc1    TRUE

Please look at the following molecule next.
-- ask Entry O=C1C=CC2(O)OC(c3ccccc3)CC(=O)C2=C1O (stereo not given) : is its growth no less than 60%?
-- reply TRUE

* * *

Tested on: MALME-3M melanoma
Assay: NCI-60 one-dose screen, 48 h (100 = growth as untreated, 0 = no growth, -100 = all killed)
Conditions: 10 µM unless noted
About 83,000 compounds went through this panel and 20% of them were active in at least one assay; those are over-represented in the sample as a whole.
Binning rule for recorded growth: b0 = under 50%, b1 = from 50% up to 80%, b2 = 80% and over

Cc1cc(N2CCOCC2)nc(N(CCCNc2ccnc3cc(Cl)ccc23)Cc2ccc3c(c2)OCO3)n1    b0

-- ask Where would COc1ccc(C(=O)C2OC3=C(C(=O)CC(C)(C)C3)C2c2cccc(Oc3ccccc3)c2)cc1 (stereo not given) land among the classes by reported growth?
-- reply b2

-- ask Here is the next compound: O=C1c2c(c3c4cccnc4[nH]c3c3ccc4ccccc4c23)C(=O)N1O
-- reply b1

-- ask Cool, now CCN1C(=O)N(CC)C2C1NC(=S)N2/N=C/C=C/c1cccs1 (stereo not given)
-- reply b0

* * *

Tested on: NCI-H226 lung
Experiment: NCI-60 one-dose screen, 48 h (100 = growth as untreated, 0 = no growth, -100 = all killed)
Conditions: 10 µM unless noted
Compounds without any hit were thinned out: in the full panel of roughly 83,000, 20% have a hit.
# if value of growth reaches 50%, tag Fulfilled; if it stays below, tag Not fulfilled

Some entries whose results are on file:
Cc1ccc(NC(=O)c2ccc(Nc3ncnc4c3cnn4-c3cccc(F)c3)cc2)cc1    Fulfilled
C/C(=C(\c1ccc(OCCCN(C)C)cc1)c1ccc(OC(=O)Cc2ccccc2)cc1)c1ccc(Cl)cc1    Fulfilled
CO[C@H]1/C=C/O[C@@]2(C)Oc3c(C)c(O)c4c(O)c(c5c(nc6cc(C)ccn65)c4c3C2=O)NC(=O)/C(C)=C\C=C\[C@H](C)[C@H](O)[C@@H](C)C(O)[C@@H](C)[C@H](OC(C)=O)[C@@H]1C (some centres not stated)    Fulfilled

Now let's try a different one.
-- ask Could you verify whether the entry CC1=NN(c2cccc(Cl)c2)C(=O)/C1=C\C=C\c1ccccc1 shows growth of no less than 50%?
-- reply Not fulfilled

* * *

System: UO-31 renal
Test: NCI-60 one-dose screen, 48 h
Conditions: 10 µM unless noted
This is part of a sample that, as a whole, favours compounds with a hit. Of some 83,000 tested, about 20% had one in any assay. The source made the active and inactive calls. How the source made its calls: active means growth percent below 10; inactive means the rest.
Would you mind answering with one of these outcomes? label 1 for active, label 0 for inactive

Some solved entries appear below for comparison.
NC(=O)[C@@H]1Cc2ccccc2CN1C(=O)c1ccc2c(c1)Cc1ccccc1-2    label 0
CN1CCN(Cn2nc(-c3cc(Cl)cc(Cl)c3Cl)oc2=S)CC1    label 0
[2H]C([2H])([2H])Oc1ccc(/C=C/C(=O)/C=C(O)/C=C/c2ccc(OC([2H])([2H])[2H])c(OC([2H])([2H])[2H])c2)cc1OC([2H])([2H])[2H]    label 0
CCOC(=O)c1ccc2c(c1)[n+](=O)c(C(C)=O)c(C(F)(F)F)n2[O-]    label 0
CCOC(=O)c1c(Nc2nc3ccccc3s2)sc2c1CCC(=O)C2    label 0

-- ask Identify the outcome logged in this assay for the compound shown: CN1CCN(c2ccc(Nc3ncc4[nH]c(=O)n(Cc5ccccc5N)c4n3)cc2)CC1
-- reply label 0

-- ask Input CCN1C(=O)N(CC)C2C1NN=c1s/c(=C\c3ccc(F)cc3)c(=O)n12 (centres undefined)
-- reply label 0

-- ask Same question, COc1cc(CNC(=O)CCCC/C=C/C(C)C)ccc1OCc1cn(-c2cccc([N+](=O)[O-])c2)nn1 this time
-- reply label 0

-- ask How about this compound: CCN(CC)CCCNC(=O)c1c2c(n3ccccc13)C(=O)c1ncccc1C2=O
-- reply label 1

-- ask Now this one: Cc1c(N2CCCCC2)[nH]c2ccccc12
-- reply label 0

-- ask Now give it for COc1cc(C(=O)n2nc(NCCCc3ccccc3)c3cc(N)ccc32)cc(OC)c1OC too.
-- reply label 0

-- ask How about O=C(/C=C/c1ccc([N+](=O)[O-])cc1)c1cccc(Nc2nc(Nc3ccccc3)nc(Nc3ccccc3)n2)c1 ?
-- reply label 0

-- ask Moving on to the next compound: N#CSCc1cc(Cl)c(CSC#N)cc1Cl
-- reply label 0

-- ask Another compound to check: CCC(C)C(N)C(=O)NC(CC(C)C)C(=O)N1CCCC1C(=O)NC(Cc1c[nH]c2ccccc12)C(=O)NC(CCCCN)C(=O)NC(Cc1c[nH]c2ccccc12)C(=O)N1CCCC1C(=O)NC(Cc1c[nH]c2ccccc12)C(=O)NC(Cc1c[nH]c2ccccc12)C(=O)N1CCCC1C(=O)NC(Cc1c[nH]c2ccccc12)C(=O)NC(CCCNC(=N)N)C(=O)NC(CCCNC(=N)N)C(N)=O (centres undefined)
-- reply label 0

* * *

Reported values of growth for individual entries
Tested on: SK-MEL-5 melanoma
Experiment: NCI-60 one-dose screen, 48 h (100 = growth as untreated, 0 = no growth, -100 = all killed)
Settings: 10 µM unless noted
This is part of a sample that, as a whole, favours compounds with a hit. Of some 83,000 tested, about 20% had one in any assay. The source made the active and inactive calls. Rule for the calls: active = growth percent below 10; inactive = the rest.

Recorded growth, per entry:
Cc1ccc(S(=O)(=O)c2nc(-c3ccccc3)oc2S(C)=O)cc1 (stereo not drawn)    44.4% (inactive)
Cc1ccc(C2=Nc3c(N)nc(N)nc3NC(c3cccc(Nc4ccnc5cc(C(F)(F)F)ccc45)c3)C2)cc1 (stereo not drawn)    17.6% (inactive)
Nc1ccc(Cl)c2c(=O)c3ccccc3[nH]c12    53.1% (inactive)
COc1cc(NC(=O)c2cncnc2Nc2ccc3c(ccn3Cc3cccc(F)c3)c2)cc(OC)c1    59.7% (inactive)
Nc1ccc(N)c2c1C(=O)c1cccc([N+](=O)[O-])c1C2=O    23.8% (inactive)

-- ask Look up growth: CN1CCN(c2ccc(Nc3ncc4[nH]c(=O)n(Cc5ccccc5N)c4n3)cc2)CC1
-- reply 101% (inactive)

-- ask CCOC(=O)/C(=C\c1ccccc1Cl)P(=O)(OCC)OCC ?
-- reply 79.5% (inactive)

-- ask Now the same for COc1cc(/C=C/c2cc(/C=C/c3ccc(O)c(OC)c3)n(C(=O)Nc3ccc(C)cc3C)n2)ccc1O
-- reply -83.4% (active)

-- ask Consider next the compound COc1cc2c(c(OC)c1OC)CCC(c1cccc(C(=O)Nc3ccc([N+](=O)[O-])cc3)c1)O2 (stereo not drawn) in the same way.
-- reply 15.4% (inactive)

-- ask One more compound: COc1ccc2c(c1)c(-c1nc(-c3cn(C)c4ccncc34)cs1)cn2C
-- reply -22.8% (active)

-- ask What would you report for CC/C(=C(/c1ccc(Cl)cc1)c1ccc(OCCN(CC)CC)cc1)c1ccc(OC)cc1 ?
-- reply 46.1% (inactive)

-- ask And then Cn1ccnc1C(=O)/C=C/c1ccc(C(=O)Nc2ccccc2F)cc1 , what is it?
-- reply 83.7% (inactive)

-- ask Next compound: CC1(C)CCC[C@]23C(=O)O[C@](O)(C(=O)C4=C[C@@](C)(/C=C/CCCc5ccc6ccc7cccc8ccc5c6c78)CC[C@@]42O)[C@@H]13
-- reply -96.3% (active)
